test system: PC-3 prostate; experiment: NCI tumour cell line growth inhibition, 48 h; in the data active = GI50 below about 0.43 µM; inactive = the rest
Possible outcomes: active, inactive

molecule=c1ccc(Cc2nc3ccc(Nc4ncnc5ccccc45)cc3[nH]2)cc1 class_assignment=inactive
molecule=Oc1ccc(/C=N\Nc2ccccn2)c(O)c1 class_assignment=inactive
molecule="CC(C)(C)N1CCC1C(N)=O (stereo not given)" class_assignment=inactive
molecule="CSc1nc2c(c(=O)[nH]1)N=C1c3ccccc3C(=O)C1C(c1ccc(F)cc1)N2 (stereo not given)" class_assignment=inactive
molecule=Cc1ccc2c(c1)nc(C(=O)c1ccco1)c(C(F)(F)F)[n+]2[O-] class_assignment=inactive
molecule=N#Cc1c(C(=O)c2ccccc2)cnn1-c1ccccc1 class_assignment=inactive
molecule="CC1=C([Se]CC(OC(=O)CC[Se]c2ccccc2)C(=O)NCCCCCC(=O)OCc2ccccc2)C(=O)c2ccccc2C1=O (stereo not given)" class_assignment=inactive
molecule=N[C@@H](Cc1c[nH]c2ccccc12)C(=O)NC1CCN(C(=O)c2c[nH]c3ccccc23)CC1 class_assignment=inactive
molecule=O=C(/C=C/c1cccnc1)NCCCCC1CCN(C(=O)c2ccccc2)CC1 class_assignment=active
molecule=COc1ccc(-c2cc(-c3ccc(OC)c(OC)c3)nc(SCCCC(=O)NO)n2)cc1 class_assignment=inactive

====

system: A549 NSCLC; test: NCI tumour cell line growth inhibition, 48 h
Each entry below lists one item and its recorded TGI value.
RESULT TYPE: TGI

compound="[N-]=[N+]=NC(c1cn(C2CC(O)C(CO)O2)c(=O)[nH]c1=O)C(Br)I (stereo unspecified)" target_desc="A549 NSCLC" reported="> 100 µM"
compound=Oc1ccc(Cc2ccc(O)c3ncccc23)c2cccnc12 target_desc="A549 NSCLC" reported="73.9 µM"
compound=CCOC(=O)/C(C1=N[C@H](C(=O)OCC)CS1)=C(\O)c1ccccc1 target_desc="A549 NSCLC" reported="> 100 µM"
compound=O=C(c1ccccc1)c1ccc2nc(-c3c(Cl)c(Cl)c(Cl)c(Cl)c3C(=O)Nc3ccco3)[nH]c2c1 target_desc="A549 NSCLC" reported="> 100 µM"
compound=COCCn1cc(-c2csc(-c3c[nH]c4ccccc34)n2)c2cccnc21 target_desc="A549 NSCLC" reported="> 100 µM"
compound="CCn1c(O)c(C(=O)NC(C)c2ccc([N+](=O)[O-])cc2)c(=O)n(CC)c1=S (stereo unspecified)" target_desc="A549 NSCLC" reported="11.5 µM"
compound=COc1cccc(OC/C(N=Cc2ccncc2)=N/NC(=O)c2ccncc2)c1 target_desc="A549 NSCLC" reported="> 100 µM"
compound="CCOC(=O)NC(OCc1ccccc1)(C(=O)OC)C(F)(F)F (stereo unspecified)" target_desc="A549 NSCLC" reported="> 100 µM"
compound="CN1C(=O)C(CCO)(C(C)(C)C)c2ccccc21 (stereo unspecified)" target_desc="A549 NSCLC" reported="> 100 µM"
compound=N[C@@H](Cc1c[nH]c2ccccc12)C(=O)NC1CCN(C(=O)c2c[nH]c3ccccc23)CC1 target_desc="A549 NSCLC" reported="> 100 µM"
compound="C=C1CC(Cn2cc(Br)c(=O)[nH]c2=O)(c2ccc(Br)cc2)OC1=O (stereo unspecified)" target_desc="A549 NSCLC" reported="29 µM"
compound=CCOC(=O)CC(=O)Sc1ccccc1 target_desc="A549 NSCLC" reported="60.6 µM"
compound=O=c1cccc(C#CC#C[C@H]2O[C@@H]2CO)o1 target_desc="A549 NSCLC" reported="3.64 µM"
compound=O=S(=O)([O-])c1cccc2cccc(N=Cc3ccccc3[O-])c12.O=S(=O)([O-])c1cccc2cccc(N=Cc3ccccc3[O-])c12.[O]=[U]=[O] target_desc="A549 NSCLC" reported="> 100 µM"
compound="CC1=C([Se]CC(OC(=O)CC[Se]c2ccccc2)C(=O)NCCCCCC(=O)OCc2ccccc2)C(=O)c2ccccc2C1=O (stereo unspecified)" target_desc="A549 NSCLC" reported="6.72 µM"
compound=Cc1ccc(C(=O)NN=C(/N=N/c2cccc(C)c2)c2ccc(N(C)C)cc2)cc1 target_desc="A549 NSCLC" reported="> 100 µM"
compound="CC12CCC3C(CC=C4CC(O)CCC43C)C1C/C(=C\\N1CCCC1)C2=O (stereo unspecified)" target_desc="A549 NSCLC" reported="> 100 µM"
compound=NNc1nnc(-c2ccccc2)nc1Cc1ccccc1 target_desc="A549 NSCLC" reported="> 100 µM"
compound=CC(=O)Nc1ccc(C(=O)N2N=C(C)/C(=C/c3ccccc3O)C2=O)cc1 target_desc="A549 NSCLC" reported="> 100 µM"
compound="CC(CN(CP(=O)([O-])[O-])CP(=O)([O-])[O-])N(CP(=O)([O-])[O-])CP(=O)([O-])[O-].N.N.[Pt+2] (stereo unspecified)" target_desc="A549 NSCLC" reported="> 100 µM"
compound="CCC1(O)CC(O)c2c(O)c3c(c(O)c2C1C(=O)OC)C(=O)c1cccc(O)c1C3=O (stereo unspecified)" target_desc="A549 NSCLC" reported="14.2 µM"
compound="Cc1ccc(C(CN(C)C)C(=O)c2ccccc2)cc1 (stereo unspecified)" target_desc="A549 NSCLC" reported="38 µM"
compound=c1cc2c3c(c1)[C@@H]1O[C@@H]1c1cccc(c1-3)[C@@H]1O[C@H]21 target_desc="A549 NSCLC" reported="> 100 µM"
compound=O=c1[nH]nc(N/N=C\c2ccc(Cl)cc2)c2ccccc12 target_desc="A549 NSCLC" reported="41.6 µM"
compound=COc1ccc(/C=C/C(=O)c2cc3c(N)c(C(=O)Nc4ccccc4Cl)sc3nc2C)cc1 target_desc="A549 NSCLC" reported="> 50 µM"
compound=O=C(O)CNc1c2ccccc2nc2ccccc12 target_desc="A549 NSCLC" reported="> 100 µM"
compound="CSc1nc2c(c(=O)[nH]1)N=C1c3ccccc3C(=O)C1C(c1ccc(F)cc1)N2 (stereo unspecified)" target_desc="A549 NSCLC" reported="> 100 µM"
compound=S=c1oc(CCCCCCCCc2nn(CNc3ccc(Cl)cc3)c(=S)o2)nn1CNc1ccc(Cl)cc1 target_desc="A549 NSCLC" reported="> 100 µM"
compound=CC(C)Oc1cc2c(cc1O)CC[C@@H]1[C@@H]2CC[C@]2(C)[C@@H](O)CC[C@@H]12 target_desc="A549 NSCLC" reported="65.9 µM"
compound="CN1CCCC(OC(=O)c2cc3cc(CCl)ccc3oc2=O)C1 (stereo unspecified)" target_desc="A549 NSCLC" reported="> 100 µM"
compound="O=C1C(Cl)C(c2cccc(O)c2)N1n1cnc2ccccc2c1=O (stereo unspecified)" target_desc="A549 NSCLC" reported="> 100 µM"
compound=Clc1ccc(-n2nnc(C3=NCCN3)c2-c2ccccc2)cc1 target_desc="A549 NSCLC" reported="> 100 µM"
compound="COC(C/C=C\\C=C\\CC/C=C/CC(C)/C=C/C(=C\\C(=O)O)CC(=O)O)/C(C)=C\\C=C(/C)C(=O)O (stereo unspecified)" target_desc="A549 NSCLC" reported="> 100 µM"
compound=O=C1/C(=C/c2cccs2)N=C(c2ccccc2)N1c1nc2ccccc2s1 target_desc="A549 NSCLC" reported="> 100 µM"
compound=O=C1c2c(O)cccc2Cc2cccc(O)c21 target_desc="A549 NSCLC" reported="1.07 µM"
compound=Nc1ccccc1C#C/C=C\C#Cc1ccccc1C(F)(F)F target_desc="A549 NSCLC" reported="15.5 µM"
compound=O=C(O)c1cc(Nc2c(O)c3c(c(O)c2Cl)C(=O)C=CC3=O)ccc1O target_desc="A549 NSCLC" reported="> 10 µM"
compound=COc1ccc(/C=N/N=C(\N)NO)c(OC)c1OC target_desc="A549 NSCLC" reported="> 100 µM"
compound="C/C=C\\C(CC(=O)NCCc1c[nH]c2ccccc12)CC(=O)OC (stereo unspecified)" target_desc="A549 NSCLC" reported="> 100 µM"
compound=COC(C[C@H]1CCCC[C@]1(O)/C(=C\CO[Si](C(C)C)(C(C)C)C(C)C)Sc1ccccc1)OC target_desc="A549 NSCLC" reported="> 100 µM"
compound=OCCCCC#Cc1ccccc1C#Cc1ccccc1 target_desc="A549 NSCLC" reported="70.4 µM"

====

system: DU-145 prostate; test: NCI tumour cell line growth inhibition, 48 h
Each entry below lists one item and its recorded TGI value.
RESULT TYPE: TGI (µM)

compound=CC(=O)Nc1nc(C)c(S(=O)(=O)NC(=O)N2c3ccccc3CCc3ccccc32)s1 measurement_qualifier=> reported=100
compound=O=c1cccc(C#CC#C[C@H]2O[C@@H]2CO)o1 measurement_qualifier== reported=3.24
compound=COc1ccc(OC)c(-c2cn3c(n2)sc2ccccc23)c1 measurement_qualifier=> reported=100
compound="CCCCCCCCCCC[N+]1(Cc2ccccc2)CC2CCN(Cc3ccccc3)CC2C1 (stereo unspecified)" measurement_qualifier== reported=1.51
compound=COC(C[C@H]1CCCC[C@]1(O)/C(=C\CO[Si](C(C)C)(C(C)C)C(C)C)Sc1ccccc1)OC measurement_qualifier=> reported=100
compound="COC(CC1(CCNc2ccccc2)C(=O)N(COCC[Si](C)(C)C)c2ccccc21)OC (stereo unspecified)" measurement_qualifier== reported=64.7
compound=O=c1[nH]nc(N/N=C\c2ccc(Cl)cc2)c2ccccc12 measurement_qualifier== reported=72
compound=OC1(C(O)(c2ccc(-c3ccccc3)cc2)c2ccc(-c3ccccc3)cc2)CCCCC1 measurement_qualifier=> reported=100
compound=CC(=O)Nc1ccc(/C=C/[N+](=O)[O-])cc1 measurement_qualifier=> reported=43.4
compound="O=P1(N(CCCl)CCCl)NCCCO1 (stereo unspecified)" measurement_qualifier=> reported=250
compound=COc1ccc(-c2cc(-c3ccc(OC)c(OC)c3)nc(SCCCC(=O)NO)n2)cc1 measurement_qualifier== reported=17.7
compound=O=[N+]([O-])c1cccc([N+](=O)[O-])c1Cl measurement_qualifier== reported=11.4
compound="COC(C/C=C\\C=C\\CC/C=C/CC(C)/C=C/C(=C\\C(=O)O)CC(=O)O)/C(C)=C\\C=C(/C)C(=O)O (stereo unspecified)" measurement_qualifier=> reported=100
compound="Cc1ccc(S(=O)(=O)CC2CCCn3c2c(C#N)c2ccccc23)cc1 (stereo unspecified)" measurement_qualifier=> reported=100
compound="CCn1c(O)c(C(=O)NC(C)c2ccc([N+](=O)[O-])cc2)c(=O)n(CC)c1=S (stereo unspecified)" measurement_qualifier== reported=8.98
compound=CCCCNC(=S)Nc1nc(C(=O)NNC(=S)NCc2ccccc2)cs1 measurement_qualifier=> reported=100
